// values below are reported log10 Kd
- experimental_target: T1, PUF4 RNA-binding domain (Saccharomyces cerevisiae, UniProt P25339 537-888)
- T1 sequence: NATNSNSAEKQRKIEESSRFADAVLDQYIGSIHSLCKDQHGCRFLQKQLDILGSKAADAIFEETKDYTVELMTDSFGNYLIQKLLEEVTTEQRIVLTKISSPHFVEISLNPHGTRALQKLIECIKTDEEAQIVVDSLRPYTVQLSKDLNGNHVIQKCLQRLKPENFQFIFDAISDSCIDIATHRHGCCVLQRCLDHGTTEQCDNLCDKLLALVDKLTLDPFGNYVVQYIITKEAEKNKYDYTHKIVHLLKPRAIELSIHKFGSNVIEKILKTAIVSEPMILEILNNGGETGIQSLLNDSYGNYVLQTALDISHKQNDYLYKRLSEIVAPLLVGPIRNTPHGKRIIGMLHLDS
- assay_protocol: Mg; RNA-MaP; 20 mM Na-HEPES pH 7.4, 30 mM KOAc, 0.75 mM MgCl2, 0.1% Tween-20, 5% glycerol, 0.1 mg/mL BSA, 2 mM DTT; 25 C; 0.0125-409.6 nM protein
- condition_description: tags: N-His6-TEV cleaved; C-SNAP kept, Cy3B-labelled; label: tethered on chip by stalled RNA polymerase
Answers are given as log10 of Kd in µM.

Use the examples below as a reference point.
binder: UCUCUUUUUCGUAUUAUUAUCUCUU (ssRNA) [Ie_S1_P5E.1_K5.1_C5.1_H5.1_[+1TTC]_A5.1_F5.1_T5.1]
log10 Kd: 0.21
--
binder: UCUCUUUGUAUAUUCUCUAUCUCUU (ssRNA) [Ie_S1_P4E.1_K4.1_C4.1_H4.1_A4.1_F4.1_[+8CTCT]_T4.1]
log10 Kd: -2.15
--
binder: UCUCUUUGUAGUAUAUUCUCUU (ssRNA) [Ic_S1_P5E.1_K5.1_C5.1_H5.1_A5.1_[T5G]_F5.1_[T9A]_[A10T]_T5.1]
log10 Kd: -2.09
--
binder: UCUCUUUGUAUUAUUUUUAUCUCUU (ssRNA) [Ie_S1_P5E.1_K5.1_C5.1_H5.1_A5.1_F5.1_[+8TTT]_T5.1]
log10 Kd: -1.87
--
binder: UCUCUUUGUAGCUUUUUCUCUU (ssRNA) [Ic_S1_P5E.1_K5.1_C5.1_H5.1_A5.1_[T5G]_[T6C]_[A7T]_F5.1_[A10T]_T5.1]
log10 Kd: -0.29

Moving on to another binder below.
Problem: Suppose we examine the binder Ic_S4_P3E.1_K3.1_C3.1_H3.1_A3.1_[T5A]_[A6C]_F3.1_[T7A]_[A8C]_T3.1 (ssRNA) RNA: UUUGACAACUGAUCGUUCUUUCUUGUAACACUUCUUUCUCGAUCAGUUGUCUUU ; what log10 Kd value has been reported?
Result: -0.84
